# MEASUREMENT_TARGET: PSMB5-FLAG (chymotryptic-like activity, constitutive 26S proteasome) (Homo sapiens, UniProt P20618+P28074)
# Construct: FLAG immunoprecipitate
# ASSAY_OVERVIEW: Proteasome activity assay on immunoprecipitated WT PSMB5-FLAG (Suc-LLVY-AMC)
pIC50: −log10 of the molar value.
METRIC: pIC50

smiles_data=CCCCCCCCCCCCNC(=O)N[C@H](C(=O)N[C@H]1/C=C/CCNC(=O)/C=C/[C@H](C)NC1=O)C(C)C metric=pIC50 observed_measurement=7.30

----------
# MEASUREMENT_TARGET: PSMB8-FLAG (immunoproteasome) (Homo sapiens, UniProt P28062)
METRIC: IC50

smiles_data=CCCCCCCCCCCCNC(=O)N[C@H](C(=O)N[C@H]1/C=C/CCNC(=O)/C=C/[C@H](C)NC1=O)C(C)C measurement_target="PSMB8-FLAG (immunoproteasome) (Homo sapiens, UniProt P28062)" observed_measurement="~0.1 µM"

The origin of these recorded values is paper PMC8837819.
